The entries below are paired with their reported yeast surface expression.
B1: scFv; the commonest letter at each place (parent)
chain 1: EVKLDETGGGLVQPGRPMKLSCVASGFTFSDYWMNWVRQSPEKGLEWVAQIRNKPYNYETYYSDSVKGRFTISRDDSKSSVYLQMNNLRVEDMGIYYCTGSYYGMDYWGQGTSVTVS
chain 2: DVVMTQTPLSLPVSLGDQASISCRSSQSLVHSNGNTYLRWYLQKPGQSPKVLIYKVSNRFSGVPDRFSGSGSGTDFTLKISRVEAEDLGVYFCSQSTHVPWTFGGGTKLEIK

- Variants of: B1
- PROCEDURE_SUMMARY: yeast surface expression (ratio to wild type); higher = more expressed
- MEASUREMENT_PARAMETERS: format: scFv 4-4-20, heavy + light
Write the value as a bare number.

Look over these answered cases.
chain 1 W36I :: 0.756
chain 1 M34F N35E :: 0.811
chain 1 Y107R W108N :: 0.495

Asked: Return reported yeast surface expression; argument: chain 1 S30A N35Y
Given back: 0.655

Asked: Return reported yeast surface expression; argument: chain 1 G100H S101E
Given back: 0.4

Asked: Return reported yeast surface expression; argument: chain 1 S101C G109N
Given back: 0.251
